This listing pairs molecules with measured inhibition at 10 µM.
assay: Cytoprotection in rat mixed cortical cells cultures assessed as inhibition of hydrogen peroxide-induced cell death at 10 uM after 24 hrs; type: functional
Entry rule: numbers only, all in %.

Here is how some molecules turned out for inhibition at 10 µM.
Memo: CC(C)(CNC(=O)CCC(F)(F)C(F)(F)C(F)(F)C(F)(F)C(F)(F)C(F)(F)F)/[N+]([O-])=C/c1ccc(CNC(=O)[C@H](O)[C@H](O)[C@H](O[C@@H]2O[C@H](CO)[C@H](O)[C@H](O)[C@H]2O)[C@@H](O)CO)cc1 , reported inhibition at 10 µM: 63.4

Memo: CCCCCCCC(=O)NCC(C)(C)/[N+]([O-])=C/c1ccc(C(=O)NCC(=O)NC(CO)(CO)CO)cc1 , reported inhibition at 10 µM: 33.8

Memo: CC(C)(C)/[N+]([O-])=C\c1ccc(CNC(=O)[C@@H](O)[C@H](O)[C@H](O[C@@H]2O[C@H](CO)[C@H](O)[C@H](O)[C@H]2O)C(O)CO)cc1 (stereo not given in full) , reported inhibition at 10 µM: 18.3

Memo: CCCCCCCC(=O)NCC(C)(C)/[N+]([O-])=C/c1ccc(CNC(=O)[C@H](O)[C@H](O)[C@H](O[C@@H]2O[C@H](CO)[C@H](O)[C@H](O)[C@H]2O)[C@@H](O)CO)cc1 , reported inhibition at 10 µM: 81

// moving on: another record for inhibition at 10 µM
Memo: CC(C)(C)/[N+]([O-])=C/c1ccccc1 , reported inhibition at 10 µM: 25
